Where these numbers come from: paper PMC4052546

experiment: Pharmacokinetics of AS and DHA in rat plasma after single and multiple intravenous AS injections (automated blood sampler, LC-MS/MS);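 further: blood drawn through a jugular vein catheter by an automated sampling system, plasma drug levels measured by LC-MS/MS with positive electrospray ionization against standard curves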; format: in vivo, Sprague-Dawley rats; details: male, Sprague-Dawley, rat, plasma, iv, 20 mg/kg, WRAIR formulation (AS/0.3M PBS Buffer), 20 mg/kg i.v. daily for 3 days, male rats, Period 1, Day 1
experimental_readout: MRT (min)

> print(dat)
                                   molecule  experimental.readout  measurement
1  C[C@H]1[C@@H](O)O[C@@H]2O[C@@]3(C)CC[C@H]4[C@H](C)CC[C@@H]1[C@@]24OO3 [DHA, dihydroartemisinin]                   MRT         23.4
2  C[C@H]1[C@H](OC(=O)CCC(=O)O)O[C@@H]2O[C@@]3(C)CC[C@H]4[C@H](C)CC[C@@H]1[C@@]24OO3 [AS, artesunate]                   MRT           18
